// provenance: patent US4931443A

Target: serotonin-1 receptor (Rattus norvegicus, UniProt P19327)
Sequence (P19327 whole entry): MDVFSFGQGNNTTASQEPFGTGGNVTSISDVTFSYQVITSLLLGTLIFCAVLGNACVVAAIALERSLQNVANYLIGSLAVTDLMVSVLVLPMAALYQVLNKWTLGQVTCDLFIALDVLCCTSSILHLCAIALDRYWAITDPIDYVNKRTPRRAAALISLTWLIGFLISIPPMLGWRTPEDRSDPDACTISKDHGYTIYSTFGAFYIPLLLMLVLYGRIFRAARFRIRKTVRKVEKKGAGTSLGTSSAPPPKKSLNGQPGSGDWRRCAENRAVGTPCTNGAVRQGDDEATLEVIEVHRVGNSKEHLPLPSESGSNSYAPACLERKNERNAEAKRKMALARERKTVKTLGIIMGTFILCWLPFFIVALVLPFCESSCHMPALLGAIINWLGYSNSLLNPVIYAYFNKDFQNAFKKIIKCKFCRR
Lab note: anything with Ki below 0.6 nM is marked Condition met; values at 0.6 nM or higher are marked Condition not met.

| molecule | studySystem | assignedClass |
| --- | --- | --- |
| O=C1CCC(c2ccc(CCCN3CCN(c4ccccc4)CC3)cc2)N1 (stereo not drawn) | serotonin-1 receptor (Rattus norvegicus, UniProt P19327) | Condition not met |
| COc1ccccc1N1CCN(CCCCc2ccc(C3CCC(=O)N3)cc2)CC1 (stereo not drawn) | serotonin-1 receptor (Rattus norvegicus, UniProt P19327) | Condition met |
| O=C1CCC(c2ccc(CCCCN3CCN(c4ccc(F)cc4)CC3)cc2)N1 (stereo not drawn) | serotonin-1 receptor (Rattus norvegicus, UniProt P19327) | Condition not met |
| Cl.Cl.O=C1CCC(c2ccc(CCCCN3CCN(c4cccc(C(F)(F)F)c4)CC3)cc2)N1 (stereo not drawn) [Example 15, dihydrochloride] | serotonin-1 receptor (Rattus norvegicus, UniProt P19327) | Condition met |

input: is_below(Ki, 0.6 nM) for Cl.O=C1CCC(c2ccc(CCN3CCN(c4cccc(C(F)(F)F)c4)CC3)cc2)N1 (stereo not drawn) [Example 2, hydrochloride] ?
output: Condition met
